- Test system: Mus musculus
- Assay Overview: Antinociceptive activity in Swiss mouse assessed as inhibition of acetic acid-induced writhing at 10 mg/kg, ip administered 30 mins before acetic acid challenge measured after 20 mins relative to control
- Assay type: functional
- Condition Context: route intraperitoneal
Measurement Type: inhibition in vivo at 10 mg/kg (%)
Give bare numbers, in %.

Reference set, count: 5
COc1cc(NC2=C(Cl)C(=O)N(c3c(C)n(C)n(-c4ccccc4)c3=O)C2=O)cc(OC)c1 :: 72
COc1ccc(NC2=C(Cl)C(=O)N(c3c(C)n(C)n(-c4ccccc4)c3=O)C2=O)cc1 :: 31.2
Cc1c(N2C(=O)C(Cl)=C(Nc3ccccc3)C2=O)c(=O)n(-c2ccccc2)n1C :: 71.6
Cc1c(N2C(=O)C(Cl)=C(Nc3ccc(Cl)c(Cl)c3)C2=O)c(=O)n(-c2ccccc2)n1C :: 75
Cc1c(N(C)CS(=O)(=O)[O-])c(=O)n(-c2ccccc2)n1C.[Na+] [DIPYRONE SODIUM] :: 33

Report inhibition in vivo at 10 mg/kg for every entry below.
1. COc1cccc(NC2=C(Cl)C(=O)N(c3c(C)n(C)n(-c4ccccc4)c3=O)C2=O)c1
2. Cc1c(N2C(=O)C(Cl)=C(c3ccc[nH]3)C2=O)c(=O)n(-c2ccccc2)n1C

Key:
[56.7, 23.3]
